This section presents compounds with their documented Vd values.
# Assay Text: Metabolism test of drugs: plasma pharmacokinetics after intravenous and intragastric administration
# Type: in vivo
# Experimental Conditions: male, rat; SD rats, IV, 2 mg/kg, plasma; read-out: Vss
Measurement Type: Vd (L/kg)

compound="CO[C@]1(C(=O)N[C@@H](C)c2ccc(-n3cc(F)cn3)nc2)CC[C@H](c2nc(C)cc(Nc3cc(C)[nH]n3)n2)CC1 [BLU-667, reference compound]" measurement_type=Vd experimental_result=8.53
compound="CO[C@]1(C(=O)N[C@@H](C)c2ccc(-n3cc(F)cn3)nc2)CC[C@H](c2nc(Nc3cc(C)[nH]n3)cc3cccnc32)CC1 [Compound C4]" measurement_type=Vd experimental_result=1.7
compound="CO[C@]1(C(=O)N[C@@H](C)c2ccc(-n3cc(F)cn3)nc2)CC[C@H](c2nc(Nc3cc(C)[nH]n3)ccc2C#N)CC1 [Compound C2]" measurement_type=Vd experimental_result=2.56
